// reported chromatographic logP for each item listed
- MEASUREMENT PROTOCOL: log P determination (HPLC, calibration with unbranched alkan-2-ones)
- Type: physicochemical
- CONDITION PARAMETERS: pH 2.7; read-out: log P (pH 2.7)

[
  {
    "MOLECULE": "CC(C)(C)c1cc(C(F)(F)C(F)(F)F)nn1CC(=O)O",
    "chromatographic logP": 2.75
  },
  {
    "MOLECULE": "Cc1c(Cl)c(C(F)(F)F)nn1CC(=O)N1CCC(c2nc(C(=O)O)cs2)CC1",
    "chromatographic logP": 2.26
  },
  {
    "MOLECULE": "Cc1cc(C(F)(F)F)nn1CC(=O)N1CCC(c2nc(C(=O)Sc3cccc4ccccc34)cs2)CC1",
    "chromatographic logP": 4.22
  },
  {
    "MOLECULE": "Cc1cc(C(F)(F)F)nn1CC(=O)N1CCC(c2nc(C(=O)OCc3ccccc3Br)cs2)CC1",
    "chromatographic logP": 3.8
  },
  {
    "MOLECULE": "CC(C)(C)c1cc(C(F)(F)F)nn1CC(=O)O",
    "chromatographic logP": 2.45
  },
  {
    "MOLECULE": "CCOC(=O)c1csc(C2CCN(C(=O)Cn3ccc(C(F)(F)F)n3)CC2)n1",
    "chromatographic logP": 2.41
  },
  {
    "MOLECULE": "Cc1cc(C(F)(F)F)nn1CC(=O)N1CCCC(c2nc(C(=O)O)cs2)C1 (stereo not drawn)",
    "chromatographic logP": 1.9
  },
  {
    "MOLECULE": "CCOC(=O)c1csc(C2CCN(C(=O)Cn3nc(C(F)(F)F)c(Cl)c3C)CC2)n1",
    "chromatographic logP": 3.17
  },
  {
    "MOLECULE": "CC(C)(C)CCOC(=O)c1csc(C2CCN(C(=O)Cn3ccc(C(F)(F)F)n3)CC2)n1",
    "chromatographic logP": 3.82
  }
]
